Test system: microorganisms
Test: Peptides having multiple activities (targeting/binding, antimicrobial, growth or phenotype altering)
Ends that are not written are not given here.
value-kind: Activities

PF-234: peptide having multiple activities (RTPYILRS; Peptide with targeting and/or antimicrobial activity) | G B
PF-C145: peptide having multiple activities (YGKESDP; Peptide with targeting and/or antimicrobial activity) | G B
PF-022: peptide having multiple activities (chain 1 MINELKNKNSGIMNNYVVTKESKL; chain 2 MINELKNKNSGIMNNYVVTKESKL; Peptide with targeting and/or antimicrobial activity) | G B
PF-528: peptide having multiple activities (chain 1 LVDVVVLIRRHLPKSCS-NH2; chain 2 LVDVVVLIRRHLPKSCS-NH2; cysteine pairing not given here) | G B
PF-061: peptide having multiple activities (chain 1 GYNSYKAVQDVKTHSEEQRVTAKK; chain 2 GYNSYKAVQDVKTHSEEQRVTAKK; Peptide with targeting and/or antimicrobial activity) | G B

## Input Suppose we examine the substance PF-294: peptide having multiple activities (DFLVNFLWFKGELNWGKKRYK; Peptide with targeting and/or antimicrobial activity) ; what Activities value has been reported?
## Output G B

## Input Suppose we examine the substance PF-407: peptide having multiple activities (KPKNKKEKTVISYEKLLSMY; Peptide with targeting and/or antimicrobial activity) ; what Activities value has been reported?
## Output G B

## Input Suppose we examine the substance PF-443: peptide having multiple activities (chain 1 KLLYFFNYFENLQQVHLLVQL; chain 2 KLLYFFNYFENLQQVHLLVQL; Peptide with targeting and/or antimicrobial activity) ; what Activities value has been reported?
## Output G B

## Input Suppose we examine the substance PF-450: peptide having multiple activities (chain 1 HRNLIILQRTIFI; chain 2 HRNLIILQRTIFI; Peptide with targeting and/or antimicrobial activity) ; what Activities value has been reported?
## Output G B

## Input Suppose we examine the substance LVLRICTDLFTFIKWTIKQRKS [PF-497] ; what Activities value has been reported?
## Output B M

## Input Suppose we examine the substance VMQSLYVKPPLILVTKLAQQN [PF-511] ; what Activities value has been reported?
## Output G B M

* * *

Tested on: microorganisms (e.g., bacteria, yeasts, fungi)
Assay: Targeting peptide binding to target microorganisms (Table 3)
Settings: microorganism(s) the targeting peptide binds; peptide binding conducted in aqueous buffers varied by peptide solubility, preferably 1x PBS
value-kind: Target(s)

Answered cases to consult:
PF-494 (FTEPLRPLQAKGQIISIKPSTSSS; Peptide with targeting and/or antimicrobial activity) | S. mutans
PF-508 (VSTFGKVVKVVDEK; Peptide with targeting and/or antimicrobial activity) | S. mutans
PF-505 (GYTKDPGTGI; Peptide with targeting and/or antimicrobial activity) | S. mutans
PF-552: peptide having multiple activities (chain 1 ELDKADAALGPAKNLAPLDVINRS; chain 2 ELDKADAALGPAKNLAPLDVINRS; Peptide with targeting and/or antimicrobial activity) | S. pneumoniae
PF-489 (KVDRVSTTITEKIK; Peptide with targeting and/or antimicrobial activity) | S. mutans
PF-551: peptide having multiple activities (chain 1 QVKEKRREIELQFRDAEKKLEASVQAE; chain 2 QVKEKRREIELQFRDAEKKLEASVQAE; Peptide with targeting and/or antimicrobial activity) | S. pneumoniae
PF-503 (VVTLKDIVAVIEDQGYDVQ; Peptide with targeting and/or antimicrobial activity) | S. mutans
PF-502 (NKGKQMQDQTGKQPIVDNG; Peptide with targeting and/or antimicrobial activity) | S. mutans

## Input Suppose we examine the substance PF-501 (GSTAHKSPIGSTNNQWGMKKTPTD; Peptide with targeting and/or antimicrobial activity) ; what Target(s) value has been reported?
## Output S. mutans

* * *

Test system: S. pneumoniae
Test: Kill or inhibit growth/proliferation; morphology, biofilm and growth disruption (Tables 5, 6); further: test concentration or dose not given here
Type: cell-based, Streptococcus pneumoniae
Set-up: key: A: Peptide aggregates; B: Less hyphal formation; Clumps; Diffuse clumps and small polyps; F: Diffuse growth; H: Thin; I: Growth inhibition; Microcolony formation; Rippled; Small polyps; Thick; W: Halo formation on top, microlonies on bottom
value-kind: Organism, effect

PF-460: peptide having multiple activities (chain 1 MEHVLPFQNTPPNIVIIYKDFTHLKSITFS; chain 2 MEHVLPFQNTPPNIVIIYKDFTHLKSITFS; Peptide with targeting and/or antimicrobial activity) | S. pneumoniae (R)
PF-598: peptide having multiple activities (MKFMLEVRNKAISAYKEITRTQI; Peptide with targeting and/or antimicrobial activity) | S. pneumoniae (R)

* * *

Test system: M. luteus
Experiment: Kill or inhibit growth/proliferation; morphology, biofilm and growth disruption (Tables 5, 6); further: test concentration or dose not given here
Format: cell-based, Micrococcus luteus
Parameters: key: A: Peptide aggregates; B: Less hyphal formation; Clumps; Diffuse clumps and small polyps; F: Diffuse growth; H: Thin; I: Growth inhibition; Microcolony formation; Rippled; Small polyps; Thick; W: Halo formation on top, microlonies on bottom
value-kind: Organism, effect

PF-036: peptide having multiple activities (chain 1 ILNRLSRIVSNEVTSLIYSLK; chain 2 ILNRLSRIVSNEVTSLIYSLK; Peptide with targeting and/or antimicrobial activity) | M. luteus (A)
MGIIAGIIKFIKGLIEKFTGK [PF-006] | M. luteus (A)
PF-548: peptide having multiple activities (chain 1 ARPIADLIHFNSTTVTASGDVYYGPG; chain 2 ARPIADLIHFNSTTVTASGDVYYGPG; Peptide with targeting and/or antimicrobial activity) | M. luteus (A)

* * *

Tested on: microorganisms (e.g., bacteria, yeasts, fungi)
Experiment: Targeting peptide binding to target microorganisms (Table 3)
Settings: peptide binding in aqueous buffers varied by peptide solubility; preferably 1x PBS
value-kind: Target(s) (microorganisms bound by the targeting peptide)

Answered cases to consult:
PF-655: peptide having multiple activities (chain 1 DAPCFDDQFGDLKCQMC; chain 2 DAPCFDDQFGDLKCQMC; Peptide with targeting and/or antimicrobial activity) | M. smegmatis
PF-662 (chain 1 GKQSRAHGPVASRREFRRKSG; chain 2 GKQSRAHGPVASRREFRRKSG; Peptide with targeting and/or antimicrobial activity) | Mycobacteria spp
PF-667 (chain 1 PAHQRLRIDQRLVADRDMVQDYES; chain 2 PAHQRLRIDQRLVADRDMVQDYES; Peptide with targeting and/or antimicrobial activity) | Mycobacteria spp
PF-709 (NKKHSPMD; Peptide with targeting and/or antimicrobial activity) | S. mutans
PF-706 (LGYGAWIGCGLGLNGFHRID; Peptide with targeting and/or antimicrobial activity) | L. pneumophila

## Input Suppose we examine the substance PF-732 (DRPSQTTHHTLSSSRITGPS; Peptide with targeting and/or antimicrobial activity) ; what Target(s) (microorganisms bound by the targeting peptide) value has been reported?
## Output E. coli

## Input Suppose we examine the substance PF-650 (IRSDQPGRQSRSSPRWPTGAGRHR; Peptide with targeting and/or antimicrobial activity) ; what Target(s) (microorganisms bound by the targeting peptide) value has been reported?
## Output Mycobacteria spp

## Input Suppose we examine the substance PF-789 (PRGAQSGHG; Peptide with targeting and/or antimicrobial activity) ; what Target(s) (microorganisms bound by the targeting peptide) value has been reported?
## Output Mycobacteria spp.

* * *

System: S. pneumoniae
Experiment: Kill or inhibit growth/proliferation; morphology, biofilm and growth disruption (Tables 5, 6); further: test concentration or dose not given here
Assay type: cell-based, Streptococcus pneumoniae
Design: key: A: Peptide aggregates; B: Less hyphal formation; Clumps; Diffuse clumps and small polyps; F: Diffuse growth; H: Thin; I: Growth inhibition; Microcolony formation; Rippled; Small polyps; Thick; W: Halo formation on top, microlonies on bottom
value-kind: Organism, effect

ALCSVIKAIELGIINVHLQ [PF-366] | S. pneumoniae (C)
PF-537: peptide having multiple activities (chain 1 LANDYYKKTKKSW; chain 2 LANDYYKKTKKSW; Peptide with targeting and/or antimicrobial activity) | S. pneumoniae (C)
PF-447: peptide having multiple activities (chain 1 IDKSRNKDQFSHIFGLYNICSG; chain 2 IDKSRNKDQFSHIFGLYNICSG; Peptide with targeting and/or antimicrobial activity) | S. pneumoniae (C)

* * *

Test system: microorganisms
Test: Peptides having multiple activities (targeting/binding, antimicrobial, growth or phenotype altering)
value-kind: Activities

Answered cases to consult:
PF-421: peptide having multiple activities (KHCFEITDKTDVV; Peptide with targeting and/or antimicrobial activity) | G B
CGKLLEQKNFFLKTR [PF-521] | G B M
PF-069: peptide having multiple activities (FDPVPLKKDKSASKHSHKHNH; Peptide with targeting and/or antimicrobial activity) | G B
PF-762: peptide having multiple activities (PAPAPSAPAPAPEQPEQPA; Peptide with targeting and/or antimicrobial activity) | G B

## Input Suppose we examine the substance PF-410: peptide having multiple activities (FALELIALCRNLFIVYFP; Peptide with targeting and/or antimicrobial activity) ; what Activities value has been reported?
## Output G B

## Input Suppose we examine the substance PF-362: peptide having multiple activities (chain 1 NIERILKEKVWMIRCVE; chain 2 NIERILKEKVWMIRCVE; Peptide with targeting and/or antimicrobial activity) ; what Activities value has been reported?
## Output G B
